- test_method_notes: yeast display, Sf9 membrane polyspecificity reagent, FACS + sequencing; frameworks hold sequencing errors
readout: polyreactivity (PSR sort gate)

Below, each entry is followed by its recorded polyreactivity (PSR sort gate) result.
QVQLVESGGGLVQAGGSLRLSCAASGRIFRRYTMGWYRQAPGKERELVAAISSGGSTYYADSVKGRFTISRDNAKNTVYLQMNSLKPEDTAVYYCNADSRSQPYYPEFDYWGQGTQVTVSS	low polyreactivity
QVQLVESGGGLVQAGGSLRLSCAASGLIFPYYTMGWYRQAPGKERELVAAISWRGGGTFYADSVKGRFTISRDNAKNTVYLQMNSLNPEDTAVYYCAAQLYPYRWYYWGQGTQVTVSS	high polyreactivity
QVQLVESGGGLVQAGGSLRLSCAASGLIFYPYAMGWYRQAPGKERELVAGISSSGDSTYYADSVKGRFTISRDNAKNTVYLQMNSLKPEDTAVYYCNADGWYFEYWGQGTQVTVSS	low polyreactivity
QVQLVESGGGLVQAGGRLRLTCAASGFIFGYYTMGWYRQAPGKERELVASITRGGSTNYADSVKGRFTISRDNAKNTVYLQMNSLKPEDTAVYYCAKRYAQTYSVSRYYYWGQGTQVTVSS	high polyreactivity

Attention now turns to another entry.
For reference, reported polyreactivity (PSR sort gate) for QVQLVESGGGLVQAGGSLRLSCAASGRIFWGNALGWYRQAPGKVRELVAAITRRGGTTFYADSVKGRFTISRDNAKNTVYLQKNSLKPEDTAGYYCAARRYCQYDGYDSGGQGTQVTVSS stands at high polyreactivity

* * *

- test_method_notes: yeast display, Sf9 membrane polyspecificity reagent, FACS + sequencing; frameworks hold sequencing errors
readout: polyreactivity (PSR sort gate)

QVQIVESGGGLVQAGGSLRLSCAASGFIFPANAMGWYRQAPGKEREFVAVISYSGGRTYYADSVKGRFTISRDNAKNTVYLQMNSLKPEDTSVYYCNVVRVATWGYDYWGQGSQVTVSS	low polyreactivity
QVQLVESGGGLVQAGGSLRLSCAASGFILGTNAMGWYRQAPGKERELVAAISYSGGSTNYADSVKGRFTISRDNAKNTVYLQMYSLKPEDTPVYYCNRDPRKYGKLDYWGQGTQVTVSS	low polyreactivity
QVQLVESGGGLVQAGGSLRLSCAASGSTFKYYGMGWYRQAPGKERELVASISSSGTRTYYADSVKGRFTISRDNAKYTVYLQMNSLKPEDTAVYYCAADSYATYFLYDSWGQGTQVTVSS	low polyreactivity
QVQLVESGGGLVQAGGSLRLSCAASGRTFGGYTMGWYRQAPGKERELVAAITGSGSNTYYADSVKGRFTISRDNAKNTVYLQMNSLKPEDTAVYYCAAPYSYRTWYPYGYWGQGTQVTVSS	high polyreactivity

Attention now turns to another entry.
For reference, reported polyreactivity (PSR sort gate) for QVQLVESAGGLVQARGSLRLSCAASGITFAQYAKGWYRQATGKERELVAGITRSGGSTHYADSVKGRFTISRDNAKYTVYLQMKSLKPEDSAVYYCNARYPYRGKRKPPDYWGQGTQVTVSS stands at high polyreactivity

* * *

- test_method_notes: yeast display, Sf9 membrane polyspecificity reagent, FACS + sequencing; frameworks hold sequencing errors
readout: polyreactivity (PSR sort gate)

QVQLVESGGGLVQAGCSLRLSCSASGRIYYAMGWYRQADGKERELVATITRSGGRTYYADSVKGRFTISRDNAKITVYLQINSLKPEDTAVYYCAKQFGRPYVGSNSYCLTYDSWGEGTQVTVSS	low polyreactivity
QVQVVESGGGLVQAGGSLRISCAASGSIFPGYDMGWYRQAPGKERELVAAIRTSGGSTNYADSVKGRFTISRDNAKNTVYLQMNSLKPEDTAVYYCAARTNSPRGTKRYYWGQGTQVTVSS	high polyreactivity
QVQLVESGGGLDQAGGSRRLSGAASGSTFHGYDKGWYIQAPGKERELVAAITSSGDDTYYADSVKGRFTISRDNAKNTVYLKRNSLKPEDTAVYYCDAEYTEGYTHDYWGQGTKVTVSS	low polyreactivity
QVQLVESGGGLVQAGGSLRLSCAASGSTFQGYAMGWYGQAPGKERELVAAINYSGGSTYYADSVKGRFTISRDNAKNTVYLQMNSLKPEDTAVYFCAARWYAVRDDYIVRYDYWGQGTQVTVSS	high polyreactivity

Attention now turns to another entry.
For reference, reported polyreactivity (PSR sort gate) for QHQLVESGAALVQAGGSLLVICAASVFTFPFYTMGWYRQAPGKEMELVAAISTSGAGTYYAESVKGRFTISRDNAKNTVYLQMNSLKTEDTAVYYCAAYKRGRREMDYWGQGTQVTVSS stands at high polyreactivity

* * *

- test_method_notes: yeast display, Sf9 membrane polyspecificity reagent, FACS + sequencing; frameworks hold sequencing errors
readout: polyreactivity (PSR sort gate)

Below, each entry is followed by its recorded polyreactivity (PSR sort gate) result.
QVQLVESCGGLVHAGGSLRLSCAASGRTCVGNVMGWYRQAPGKERELVAAISRSGGNTYYADSVKGRFTISRDNAKNTVYLLMNSLKPEDTAVYYCAKVGLYGPVEYDYWGQGTQVTVSS	high polyreactivity
QVQHVESAGGLVQAGGILRLSCHASGFTIHAYVLGWYRQAPGKERELVAAISSGGSTYYADSVKGRFTISRDNAKNTGYLQMNSLKPEATSVYYCAAAYPYYWHLDFWGQGSQVTVSS	low polyreactivity
QVQLVESGGGLVQAGGSLRLSCAASGRIFPSYAMGWYRQAPGKERELVAAISYSGASTYYADSVKGRFTISRDNAKNTVYLQMNSLKPEDTAVYYCYQLVEEDYWGLGTQVTVSS	low polyreactivity
QVQLVESGGSLVQAGGSLRLSCAASGSTFDYYAMGWYRQAPGKARELHAAIDWSGDSTYYADSVKGRFTISRDNAKNTVYLQMNSLKREDSAVYYCPADLDSRGTYGRYEYWGQGTQVTVSS	low polyreactivity
QVQLVESGGGLVQAGGSLRLSCAASGSTFGVYDMGWYRQAPGKERELVAAITGNGGRTYYADSVKGRFTISRDNAKNTVYLQMNSLKPEDTAVYYCNARVKRYVYWPYDYWGQGTQVTVSS	high polyreactivity
QVQLVESGGGLVQAGGRLRLSGAASGSTFGGYAMGWYRQAPGKERELVASINYGGDTTYYADSVKGRFTISRDNAKNTVYLQMNSLKPEDTAVYYCATDGTTPTPRYAFVRFDHWGQGTQVTVSS	low polyreactivity

For reference, reported polyreactivity (PSR sort gate) for QVQLVESGGGLVQAGGSLRLSCAASGFTFNYYAMGWYRQAPGKERELVAGITRSGVSTNYADSVKGRFTISRDNAKNTVYLQMNSLKPEDTAGYYSAREEGRRYRGWPYVFAPQHDYWGQGTQVTVSS stands at high polyreactivity

For reference, reported polyreactivity (PSR sort gate) for QVQLVESGGGLVQAGGSLRLSCAASGSTFYYYAMGWYRQAPGKERELVAAITYRGGSTYYADSVKGRFTISRDNAKNTVYLQMNSLKPEDTAVFYCAIVGYKTSSIRYGYWGQGTQVTVSS stands at high polyreactivity

For reference, reported polyreactivity (PSR sort gate) for QVHLVESGGGLVQAGGSLRLSCAASGRIFGYYAMGWYRQAPGKVRELVAAIRRSGGSTYADSVKGRFTISRDNAKNTVYLQMNSLKPEDTAVYDCAAGHYWTSPYRVLSYSYWGQGTQVTVSS stands at high polyreactivity

For reference, reported polyreactivity (PSR sort gate) for QVQLVESGGGLVQAGGSLRLSCAASGITFFFNAMGWYRQAPGKERELVAAITSGGGSTYYADSVKGRFTISRDNAKNTVYLQMNSLKPEDTAVYYCNADFSKSYDYWGQGTQVTVSS stands at low polyreactivity

For reference, reported polyreactivity (PSR sort gate) for QVQLVESGGGLVQAGGSLRLSCSAYGYTFSHYAMGWYRQAPGKERELVAGITWSGGSTYYADSVKGRYTISRDNAKNTVYLQMNSLKPEDTSVYYCAAKYYWYYSYSGIPLFDYWGQGTQVTVSS stands at low polyreactivity

* * *

- test_method_notes: yeast display, Sf9 membrane polyspecificity reagent, FACS + sequencing; frameworks hold sequencing errors
readout: polyreactivity (PSR sort gate)

Below, each entry is followed by its recorded polyreactivity (PSR sort gate) result.
QVQLVESGGGLVQAGGSIRLSCAASGRIFHLYAMGWYRQAPGKERELVAAISRGGDTYYADSVKGRFTISRDNAKNTVYLQMYSLKPEDTAVYYCAAGRWVYTVGYYPVGYYYWGQGTQVTVSS	high polyreactivity
QVQLVESGGGLVQAGGSLRLSCAATGRSFVHKAMGWYRQAPGKERELVAAISRGGSTYYADSVKGRFTISRDNAKNTVYLQMNSMKPEDTAVYYCAKERRYTGRRSYEFNYWGQGTHVTVSS	low polyreactivity
QVQLVESGGGLVQAGGSLRLSCAASGFTLGYNAMGWYRQAPGTERELVAAITRSGGSTYYADSVKGRFTISRDNAKNTVYLQMNSLKPEDTAVYYCNARSVYGSKQEEYWGQGTQVTVSS	high polyreactivity
QGQLEESGGGLVQAGCSLRRSCAASGNIFLIYAMGWSRQAPGKEGELVAAISFSDDTTDYADSVKGRFTSSRDNAKNTAYIQMNSLKPEDTAVYYCAAELYYDVANTQYDYWGQGTQVTVSS	high polyreactivity
QVQLVESGGGLVQAGGSLRLSCAASGSTFTDYDMGWYRQAPGTERELVAAITSGCSTNYADSVKGRFTISRDNAKNTVYLQMNSLKPEDTAVYYCAAADADRKYDYWGQGTQVTVTS	low polyreactivity

Attention now turns to another entry.
For reference, reported polyreactivity (PSR sort gate) for QVQLVESGGGLVQAGGSLRLSCAASGITLTYYAMGWYRQAPGKERELVAAITWNGGHTYYADSVKGRFTISRDNAKNTVYLQMISQKPEDTAVYYCAAELWAYTWYWHSDYWGQGTQVTVSS stands at low polyreactivity
